Values of MDR1-MDCK efflux ratio strictly less than 2 map to yes (1), and values of at least 2 map to no (0).

[[record]]
chem_smiles = "COc1ncc(C(=O)NCc2cnn3cccnc23)cn1"
class_label = "no (0)"

[[record]]
chem_smiles = "Cc1nc(NCc2scnc2C)n(C)n1"
class_label = "no (0)"


Hello, I'm reviewing records and need to know if MDR1-MDCK efflux ratio of Cc1cc(C)c2c(C(=O)N3CC4(CNC(=O)N4)C3)cc(C)nc2c1 is below 2. Could you check? no (0)

====

Quick list: intrinsic clearance, human liver microsomes per entry.
Kindly provide the numeric value in mL/min/kg only, without the unit symbol.

Previously resolved entries follow.
[[record]]
chem_smiles = "Cc1cnc(Cl)nc1-c1ccc(N(Cc2ccc(CNC(=O)C(F)F)cc2)C(=O)c2ccc(O)cc2O)cc1"
result_value = 41.3

[[record]]
chem_smiles = "CCOc1ccc(CN[C@@H]2CCC[C@H]2Cc2cc(C)no2)cc1OC"
result_value = 61.6

[[record]]
chem_smiles = "Cc1ccc(S(=O)(=O)Nc2ccccc2-c2nc3ccccc3[nH]2)cc1"
result_value = 122

[[record]]
chem_smiles = "CC(C)CCNC(=O)CSc1nc2ccccc2[nH]1"
result_value = 114

[[record]]
chem_smiles = "CC#CC(=O)N1CC[C@@H](n2cc(-c3ccc(Oc4c(F)cccc4F)cc3)c3c(N)n[nH]c(=O)c32)C1"
result_value = 41.7

[[record]]
chem_smiles = "CN(C)c1ccc(C(=O)N2CCN3C(=O)N(Cc4ccccc4)C(=O)[C@H]3C2)cc1"
result_value = 30


Need intrinsic clearance, human liver microsomes, item Cc1cc(CO)nc(N2CCCCC2)n1 26.7

I am curious: what intrinsic clearance, human liver microsomes value has been reported for Cc1nn(Cc2csc(-c3cccs3)n2)c(N)c1C#N ? 19.2

Record request: intrinsic clearance, human liver microsomes value, item Cc1cccc(COc2cccc(/C=C3\C(=O)NN(c4ccccc4)C3=O)c2)c1 66.3

What value of measured intrinsic clearance, human liver microsomes is listed for COc1ccc(Br)c(-c2nnc(N)o2)c1 ? 16.4

Look up intrinsic clearance, human liver microsomes: CN(Cc1ccc(CO)cc1)Cc1cc(F)c(F)c(F)c1 54

What value of measured intrinsic clearance, human liver microsomes is listed for O=C(CNc1cc(N2CCCC2=O)ccc1F)N1CCCCCC1 ? 23.8

Form field: reported intrinsic clearance, human liver microsomes of Cc1cccnc1CNc1ccc(C#N)cc1F 32.9

Endpoint output: intrinsic clearance, human liver microsomes of Cc1cc(N(C)Cc2ccc(N)nc2)nc(-c2ccncc2)n1 . Value? 44.2

intrinsic clearance, human liver microsomes for Cc1ccc(Cl)c(OC[C@@]2(O)CN(C3CCC3)CC[C@@H]2O)c1 ? 166

Reported intrinsic clearance, human liver microsomes, molecule C=CCNc1ncc(-c2cnccn2)c(C2CC2)n1 : ____ 13

May I ask what intrinsic clearance, human liver microsomes has been recorded for Nc1ncnc2c1c(-c1ccc(Oc3ccccc3)cc1)nn2[C@@H]1CCCNC1 ? 35

Find the recorded intrinsic clearance, human liver microsomes belonging to Cc1cccc2cc(C(=O)NCCSc3nccn3C)n(C)c12 and report it. 180

# query: intrinsic clearance, human liver microsomes of entry O=C(Nc1ccccc1-n1ccnc1)c1ccc(F)cc1 10.2

Consider the molecule shown here: O=C1Nc2ccccc2O[C@H]2C[C@@H]1N(Cc1cccnc1)C2 What is its recorded intrinsic clearance, human liver microsomes? 12.7
